Where do the numbers come from? From ChEMBL document CHEMBL5154784.

- TARGET SYSTEM: fMet-Leu-Phe receptor (Homo sapiens, UniProt P21462)
- Sequence (P21462 whole entry): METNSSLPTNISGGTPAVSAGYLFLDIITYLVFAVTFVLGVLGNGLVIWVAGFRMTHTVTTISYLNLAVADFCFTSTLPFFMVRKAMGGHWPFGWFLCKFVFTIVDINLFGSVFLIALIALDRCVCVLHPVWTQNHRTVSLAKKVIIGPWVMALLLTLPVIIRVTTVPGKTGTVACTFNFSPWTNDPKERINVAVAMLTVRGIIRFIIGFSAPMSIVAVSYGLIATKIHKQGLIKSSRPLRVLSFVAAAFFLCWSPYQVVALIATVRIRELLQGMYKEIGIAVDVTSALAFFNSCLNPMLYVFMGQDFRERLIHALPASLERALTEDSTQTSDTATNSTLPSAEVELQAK
- EXPERIMENT DESCRIPTION: Antagonist activity at human FPR1 transfected in human HL-60 cells assessed as inhibition of fMLF-induced intracellular calcium mobilization preincubated for 10 mins followed by fMLF addition and measured every 5 seconds for 240 secs by Fluo-4-AM dye based fluorescence assay
pIC50: −log10 of the molar value.
ENDPOINT NAME: pIC50

A: N#Cc1ccc(C[C@@H](NC(=O)Nc2ccc(F)cc2)C(=O)N2CCCc3ccccc32)cc1
B: N#Cc1ccc(C[C@H](NC(=O)Nc2ccc(F)cc2)C(=O)N2CCCC2)cc1
Given the listed records, identify the one among A and B with higher pIC50. # respond with the chosen item's label
A

P: N#Cc1ccc(C[C@H](NC(=O)Nc2ccc(F)cc2)C(=O)N2CCCc3ccccc32)cc1
Q: N#Cc1ccc(C[C@@H](NC(=O)Nc2ccc(F)cc2)C(=O)N2CCCC2)cc1
Of P and Q , whose reported pIC50 is the larger number? Pick one and reply with its label.
P

I: N#Cc1ccc(C[C@H](NC(=O)Nc2ccc(F)cc2)C(=O)NC2CCCCNC2=O)cc1 (stereo partly specified)
II: N#Cc1ccc(C[C@@H](NC(=O)Nc2ccc(F)cc2)C(=O)NC2CCCCNC2=O)cc1 (stereo partly specified)
Thinking about recorded pIC50 values, which is higher, I or II ? Lab log: write the label of the selected item as the result.
I
(I: 5.46, II: 4.39)
